target: SULT1A1 (Homo sapiens, UniProt P50225)
Sequence (P50225 whole entry): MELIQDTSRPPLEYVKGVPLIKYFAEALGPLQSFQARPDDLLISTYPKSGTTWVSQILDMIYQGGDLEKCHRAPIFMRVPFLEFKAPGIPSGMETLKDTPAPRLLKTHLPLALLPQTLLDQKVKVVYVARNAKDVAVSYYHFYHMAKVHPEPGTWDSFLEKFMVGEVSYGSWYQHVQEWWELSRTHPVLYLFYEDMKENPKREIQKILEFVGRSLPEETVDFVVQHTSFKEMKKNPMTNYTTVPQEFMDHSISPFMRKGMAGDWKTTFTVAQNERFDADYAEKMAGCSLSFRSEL
Readout Label: Ki (nM)

mol=Cc1cccc(Nc2ccccc2C(=O)O)c1C experimental_result=27

* * *

biological target: UniProt Q06520
Sequence (Q06520 whole entry): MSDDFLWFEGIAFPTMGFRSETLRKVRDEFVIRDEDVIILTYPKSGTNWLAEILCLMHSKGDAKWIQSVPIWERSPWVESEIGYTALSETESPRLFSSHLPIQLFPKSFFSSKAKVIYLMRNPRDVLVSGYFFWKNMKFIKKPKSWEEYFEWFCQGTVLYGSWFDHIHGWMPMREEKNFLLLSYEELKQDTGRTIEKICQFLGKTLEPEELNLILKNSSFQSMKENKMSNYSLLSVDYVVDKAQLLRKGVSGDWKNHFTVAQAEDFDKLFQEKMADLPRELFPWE
pKi: −log10 of the molar value.
Readout Label: pKi

compound="Cc1cccc(Nc2ccccc2C(=O)O)c1C [Mef, Mefenamic acid]" experimental_result=4.85
